- Test system: Scenedesmus obliquus
- procedure_details: Effect of hormone concentrations on growth rate, heterotrophic conditions, 48 hours
- Format: cell-based
- Design: unit not given here
- experimental_conditions: hormone 0.01 ng, control 0.35 ± 0.023
growth rate values by entry
The answer should be written as a number, with no unit following it.

Known results for compounds:
{"molecule_smiles": "O=C(O)Cc1cccc2ccccc12", "experimental_readout": "growth rate", "reported_result": 0.26}
{"molecule_smiles": "O=C(O)Cc1c[nH]c2ccccc12", "experimental_readout": "growth rate", "reported_result": 0.23}
{"molecule_smiles": "C=C1C[C@]23C[C@@]1(O)CC[C@H]2[C@@]12C=C[C@H](O)[C@@](C)(C(=O)O1)[C@H]2[C@@H]3C(=O)O", "experimental_readout": "growth rate", "reported_result": 0.44}
{"molecule_smiles": "c1coc(CNc2ncnc3[nH]cnc23)c1", "experimental_readout": "growth rate", "reported_result": 0.28}
{"molecule_smiles": "c1ccc(CNc2ncnc3nc[nH]c23)cc1", "experimental_readout": "growth rate", "reported_result": 0.28}

Query: Recorded growth rate for O=C(O)COc1ccc(Cl)cc1Cl with Scenedesmus obliquus, please?
Reply: 0.28

Reference source for all entries: patent US20210307271A1
